The reported measurements were obtained from PubChem BioAssay.

As shown below, each of these compounds has a reported inhibition value.
# test_name: TR-FRET optical interference artefacts, confirmation, artefact control for LEDGF/p75-dependent integration inhibitor project, biochemical, HIV-1 IN multimerization (AID 1053135);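 further: 0% = integrase with antibodies and DMSO and 100% = antibodies without integrase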
# assay_setup: TR-FRET optical interference counterscreen, at 7.7 µM, hits give high values
This is one part of the list. Active and inactive are the calls of the source.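 How the source made its calls: active means inhibition above the mean over all tested compounds plus 3 SD, which no compound reached; inactive means the rest.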

C=CCn1c(=S)[nH]c2scc(-c3ccco3)c2c1=O = -24.4% (inactive)
NC(=O)c1ccccc1NC(=O)c1ccccc1F = -4.33% (inactive)
CCOC(=O)c1c(C)oc2cc(Sc3ccccc3)c(O)c(O)c12 = -2.84% (inactive)

Lookup result for "O=C(O)CCC(=O)Nc1ccc(N2CCOCC2)cc1" ; measured inhibition: -0.6% (inactive)

Lookup result for "Cn1ccc(=Nc2ccc(NC(=O)c3ccc(N=c4ccn(C)c5ccc([N+](=O)[O-])cc45)cc3)cc2)cc1" ; measured inhibition: 2.56% (inactive)

Lookup result for "COc1c(O)cc2oc(-c3ccc(O)c(O)c3)cc(=O)c2c1O" ; measured inhibition: -81.9% (inactive)

====

# Tested on: T-cell receptor (TCR)-CD3 interaction, human
# test_name: TCR-CD3 interaction inhibitors, retest, confirmation, biochemical, fluorescence, TAMRA-labeled TCR probe (AID 652036)
# assay_setup: TAMRA-labeled TCR probe fluorescence binding assay; at 9.4 µM
Some of the results follow. Active and inactive are the calls of the source. No stated cut-off is given here; in the data, active means inhibition above about 19%; inactive means the rest.
The reply should name one outcome from active, inactive

Record excerpt, results attached:
Cc1ccccc1NCC(=O)N/N=C\c1ccc([N+](=O)[O-])s1 = inactive
CNS(=O)(=O)c1ccc2c(c1)[nH]c(=S)n2C = inactive
CN(C)c1ccc(N/C=C/C(=O)C(F)(F)F)cc1 = inactive

Problem: What outcome does the record of this test show for "O=C(NNC(=O)c1ccccc1O)c1ccccc1O" ?
Result: active

Problem: What outcome does the record of this test show for "COc1ccc(C(=O)NNc2cc(C)nc(NNC(=O)c3ccc(OC)cc3)n2)cc1" ?
Result: inactive

====

# system_tested: Oxysterols receptor LXR-beta (Homo sapiens)
# test_name: LXR agonists, Gal4 luciferase reporter, confirmation, counter-screen for hcDAF-12 agonist project, cell-based, luminescence, HEK293, H. contortus campaign (AID 743027)
# assay_setup: HEK293 Gal4-LXR tk-luc reporter, 24 h, at 6.8 µM, hits give high values, normalized: DMSO 0%, positive control 100%
This is one part of the list.
As shown below, each of these molecules has a reported activation value.
Respond with the bare value in %.

NNc1nc2c(Cl)cccc2s1 = -0.01
Nc1ccc2[nH]c(=S)sc2c1 = 0.01
COc1cc(SC)ccc1C(=O)Nc1cc(C)ccn1 = 1.02
Cc1cccc(-c2nc3ccccc3c(=O)n2NC(=O)Cc2ccc(Cl)cc2)c1 = -0.04
CC(=O)N1C(=O)/C(=C2\SC(=S)N(NC(=O)c3ccc(O)cc3)C2=O)c2ccccc21 = -0.17

Lookup result for "CC(=O)N1CCN(c2ccccc2NC(=S)NC(=O)c2cc3ccccc3o2)CC1" ; measured activation: -0.28

Lookup result for "C(=N\Nc1ccc2ccccc2n1)/c1ccc2c(c1)OCO2" ; measured activation: 1.28

Lookup result for "Oc1cccc2ccc(/C=C/c3ccc(Br)s3)nc12" ; measured activation: 1.05

Lookup result for "Nc1ccc2nn(-c3ccc(Cl)cc3)nc2c1" ; measured activation: 1.78

Lookup result for "c1ccc(C2=Nc3cccc4cccc(c34)N2)cc1" ; measured activation: -0.31

Lookup result for "c1ccc2sc(NN=C3CCCC3)nc2c1" ; measured activation: 1.38

Lookup result for "Cc1nn(CCOc2ccccc2)c(=O)n1-c1ccccc1F" ; measured activation: 0.49

====

# system_tested: Protein phosphatase methylesterase 1 (Homo sapiens) (UniProt Q9Y570)
# Sequence (Q9Y570 whole entry, looked up): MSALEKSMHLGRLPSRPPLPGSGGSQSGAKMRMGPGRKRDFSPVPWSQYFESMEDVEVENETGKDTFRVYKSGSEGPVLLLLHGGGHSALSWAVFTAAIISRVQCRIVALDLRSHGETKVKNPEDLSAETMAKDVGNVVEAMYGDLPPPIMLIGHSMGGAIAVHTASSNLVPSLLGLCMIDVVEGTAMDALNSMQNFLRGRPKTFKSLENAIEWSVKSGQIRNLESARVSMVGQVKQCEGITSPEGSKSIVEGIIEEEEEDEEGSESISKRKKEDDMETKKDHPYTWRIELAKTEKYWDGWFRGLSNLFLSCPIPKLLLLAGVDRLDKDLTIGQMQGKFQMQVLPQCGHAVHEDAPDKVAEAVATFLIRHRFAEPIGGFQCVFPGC
# test_name: PME-1 inhibitor activity retest, confirmation, biochemical, fluorescence polarization, FP-Rh probe, triplicate (AID 2171);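 further: 0% = enzyme with DMSO and 100% = wells lacking PME-1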
# assay_setup: recombinant PME-1, FP-Rh probe fluorescence polarization; at 5.9 µM
Activity calls are given as the source filed them.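 Rule for the calls: active = inhibition above the hit cutoff set in the earlier primary screen (cut at about 27% in these data); inactive = the rest.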
The reply should name one outcome from active, inactive

Record excerpt, results attached:
CCN1CCc2c(sc(NC(=O)Nc3ccc(Cl)c(Cl)c3)c2C(N)=O)C1 = inactive
O=c1[nH]c(N/N=C\c2ccc3c(c2)OCO3)nc2ccccc12 = inactive
CCCN(CC(=O)Nc1ccccc1C)C(=O)COC(=O)CSc1ccc([N+](=O)[O-])cc1 = inactive
Cc1ccc(N=Nc2c(N)n(-c3ccccc3)[nH]c2=O)cc1 = active
Cc1ccc(/C=N/Nc2ccnc3cc(Cl)ccc23)c(C)c1 = active
Oc1cccc(Nc2nc(O)c(/C=C3\C=Nc4ccccc43)s2)c1 = inactive

Could you now look at the following compound, please?
Problem: What outcome does the record of this test show for "Cc1cc2nc3c(=O)n(CCc4ccccc4)c(=O)[nH]c3nc2cc1N" ?
Result: active

====

# System: transactivating tegument protein VP16 (Human herpesvirus 1)
# test_name: VP16 transactivation reporter inhibitors, counter-screen for SRC2 inhibitor project, cell-based, luminescence, single concentration (AID 652007)
# assay_setup: cell-based VP16 transactivation luciferase reporter, at 8.9 µM, hits give high values
experimental_readout: inhibition (%)
Respond with the bare value in %.

Please review the entries below; each comes with its answer.
CC(OC(=O)C1=COCCO1)C(=O)Nc1ccc(Cl)cn1 (stereo not given) = -6.28
CCOC(=O)c1c(C)cc2c(CO)n[nH]c(=O)c2c1C = -8.56
Cc1c(/C(O)=C2\C(=O)C(=O)N(CCN(C)C)C2c2ccccc2)cnn1-c1ccccc1 (stereo not given) = -15.3
COc1ccc([C@H]2CC(=O)C=C(c3ccc(Oc4ccccc4)cc3)C2)cc1OC = 10.7
CN(C)c1ccc(/C=C/c2nc3ccccc3s2)cc1 = 77.1
Cc1nc2cc(-c3ccc(Cl)cc3)nn2c(C)c1CCC(=O)NC(C)c1ccc2c(c1)OCCO2 (stereo not given) = -10.9
CCCCCc1c(CC)ncn1CCc1ccccc1OC = 2.9
CCOC(=O)c1c(C)nn(-c2ccc(NC(=O)/C=C/C(=O)O)cc2)c1C = 8.16

Lookup result for "CCOC(=O)CCSc1nc(C(C)(C)C)cc(C(F)(F)F)c1C#N" ; measured inhibition: -14.2

Lookup result for "COc1ccc(C#Cc2ccc3c(c2)[C@H]2[C@H](CCN2S(=O)(=O)c2ccccc2F)[C@H](CO)N3C)cc1" ; measured inhibition: -5.48

====

As shown below, each of these molecules has a reported inhibition value.
# test_name: TR-FRET optical interference artefacts, confirmation, artefact control for LEDGF/p75-dependent integration inhibitor project, biochemical, HIV-1 IN multimerization (AID 1053135);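 further: 0% = integrase with antibodies and DMSO and 100% = antibodies without integrase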
# assay_setup: TR-FRET optical interference counterscreen, at 7.7 µM, hits give high values
This is one part of the list. Active and inactive are the calls of the source.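 The calls were made as follows: active = inhibition above the mean over all tested compounds plus 3 SD, which no compound reached; inactive = the rest.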

C[C@H]([C@@H](O)[C@@H](O)[C@@H](C)C(C)(C)C)[C@H]1CC[C@H]2C3CC[C@H]4C[C@H](OS(=O)(=O)O)[C@@H](OS(=O)(=O)O)C[C@]4(C)[C@H]3CC[C@]12C (stereo not given in full) = 6.58% (inactive)
COc1cc(/C=C2\CCCc3c2nc2ccccc2c3C(=O)O)cc(Cl)c1O = 5.85% (inactive)
NC1=CC(=O)C(=O)c2cccnc21 = -160% (inactive)
Cn1c(SCc2nc3ccccc3s2)nnc1-c1ccc2c(c1)OCO2 = -2.33% (inactive)

// next entry
Lookup result for "CC(=O)c1nc2ccccc2n1Cc1ccccc1" ; measured inhibition: 2.34% (inactive)

====

# test_name: VP16 transactivation inhibitors, counter-screen for SRC1 inhibitor project, cell-based, luminescence, high throughput (AID 588824)
# assay_setup: cell-based VP16 transactivation luciferase luminescence; at 3.6 µM
Active and inactive are the calls of the source. No stated cut-off is given here; in the data, active means inhibition above about 25%; inactive means the rest.
The reply should name one outcome from yes = active, no = inactive

Record excerpt, results attached:
O=C1c2cccc(OCc3ccc(F)cc3)c2CCN1Cc1ccc(F)cc1 = yes
Cc1cc(C)cc(NS(=O)(=O)c2ccc3[nH]c(=O)ccc3c2)c1 = no
Cc1cc(C)c2nc(NNC(=O)c3ccc(S(=O)(=O)N4CC(C)CC(C)C4)cc3)sc2c1 (centres undefined) = yes
COc1ccc(NS(=O)(=O)c2ccc(-c3cnc(C4CC4)o3)cc2)cc1OC = yes
O=C(CN1C(=O)COc2ccccc21)Nc1ccccc1F = no

Problem: What outcome does the record of this test show for "CCOc1cc(C(N)=O)cc(Br)c1OC" ?
Result: no

Problem: What outcome does the record of this test show for "CCCOc1ccc(Cc2c(Cl)nc(SC)nc2NC)cc1" ?
Result: no

Problem: What outcome does the record of this test show for "Nc1nc(F)nc2c1ncn2[C@@H]1O[C@H](CO)[C@@H](O)[C@H]1O" ?
Result: yes

Problem: What outcome does the record of this test show for Cc1ccc(NC(=O)NC2CC(=O)N(c3ccc4c(c3)OCCO4)C2)cc1C (centres undefined) ?
Result: no

Problem: What outcome does the record of this test show for COCC(=O)OC1CCn2c1nc1c2C(=O)C(C)=C(NC(C)=O)C1=O (centres undefined) ?
Result: yes

Problem: What outcome does the record of this test show for "O=C(Nc1c2ccccc2nc2ccccc12)C(Cl)(Cl)Cl" ?
Result: no

Problem: What outcome does the record of this test show for "CCOC(=O)c1c(-c2ccccc2)csc1NC(=O)c1nn(CC)cc1Br" ?
Result: no

Problem: What outcome does the record of this test show for "CCc1ccc(NC(=O)c2ccc(F)c(S(=O)(=O)N(CC)c3ccccc3)c2)cc1" ?
Result: no
